# Target Of Assay: human TRPA1 (Homo sapiens (Human), UniProt O75762)
# Sequence (O75762 whole entry): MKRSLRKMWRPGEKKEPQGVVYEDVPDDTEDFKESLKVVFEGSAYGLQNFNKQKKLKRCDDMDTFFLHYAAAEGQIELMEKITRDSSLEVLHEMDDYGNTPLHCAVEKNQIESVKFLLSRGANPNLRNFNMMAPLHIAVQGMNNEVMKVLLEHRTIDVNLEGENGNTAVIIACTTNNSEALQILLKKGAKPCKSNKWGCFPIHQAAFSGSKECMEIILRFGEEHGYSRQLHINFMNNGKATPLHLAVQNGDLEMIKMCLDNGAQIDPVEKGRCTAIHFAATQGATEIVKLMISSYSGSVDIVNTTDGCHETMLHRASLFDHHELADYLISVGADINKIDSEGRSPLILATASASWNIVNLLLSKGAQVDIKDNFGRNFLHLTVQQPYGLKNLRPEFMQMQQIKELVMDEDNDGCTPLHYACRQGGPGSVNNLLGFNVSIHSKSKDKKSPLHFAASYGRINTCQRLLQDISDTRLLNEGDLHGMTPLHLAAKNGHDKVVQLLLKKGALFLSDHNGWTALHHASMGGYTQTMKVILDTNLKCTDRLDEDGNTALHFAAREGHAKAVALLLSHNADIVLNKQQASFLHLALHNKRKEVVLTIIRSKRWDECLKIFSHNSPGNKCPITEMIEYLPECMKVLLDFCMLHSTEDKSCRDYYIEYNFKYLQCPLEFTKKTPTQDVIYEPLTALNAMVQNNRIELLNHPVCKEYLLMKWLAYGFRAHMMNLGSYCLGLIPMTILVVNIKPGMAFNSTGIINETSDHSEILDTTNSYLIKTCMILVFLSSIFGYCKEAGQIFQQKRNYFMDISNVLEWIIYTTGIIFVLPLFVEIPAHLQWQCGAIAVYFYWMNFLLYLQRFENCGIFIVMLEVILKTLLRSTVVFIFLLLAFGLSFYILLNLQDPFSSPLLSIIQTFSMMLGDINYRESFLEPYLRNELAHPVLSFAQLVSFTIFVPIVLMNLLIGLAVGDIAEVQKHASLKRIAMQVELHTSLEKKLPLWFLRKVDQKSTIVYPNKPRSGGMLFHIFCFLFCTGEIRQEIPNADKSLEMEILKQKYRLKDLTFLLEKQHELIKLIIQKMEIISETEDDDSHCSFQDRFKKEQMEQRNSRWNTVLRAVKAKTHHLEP
# Assay: hTRPA1 CHO Ca2+ FLIPR assay (block of cinnamaldehyde induced calcium influx)
# Format: cell-based
# Assay Conditions: CHO cells expressing TRPA1; 75 uM cinnamaldehyde; Hill coefficient fixed to 1.5; read-out: hTRPA1 (hTRPA1 CHO Ca2+ MAX EVO (IC50))
Metric Name: IC50

INSERT INTO measurements (compound, endpoint_result) VALUES
  ('Cc1ccnc2ncn(Cc3nn([C@H]4C[C@](F)(c5ccc(C#N)cc5)C4)c(=O)o3)c(=O)c12 [compound 77]', '21.4 nM'),
  ('O=c1c2cccnc2ncn1Cc1nn([C@H]2C[C@H](c3ccc(Cl)cc3)C2)c(=O)o1 [compound 98]', '16.2 nM'),
  ('C[C@@H](Cn1nc(Cn2cnc3ncn(C)c3c2=O)oc1=O)c1ccc(Cl)cc1 [compound 20]', '812 nM'),
  ('Cn1cnc2ncn(Cc3nn(CCc4ccc(Cl)c(-c5ccccc5)c4)c(=O)o3)c(=O)c21 [compound 42]', '98 nM');

----------
# Target Of Assay: human TRPA1 (Homo sapiens (Human), UniProt O75762)
# Assay: hTRPA1 CHO Ca2+ FLIPR assay (block of cinnamaldehyde induced calcium influx)
# Assay type: cell-based
# Assay Conditions: CHO cells expressing TRPA1; 75 uM cinnamaldehyde; Hill coefficient fixed to 1.5; read-out: hTRPA1 (hTRPA1 CHO Ca2+ MAX EVO (IC50))
pIC50: −log10 of the molar value.
Please mark 1 (yes) if the recorded pIC50 is equal to or greater than 7, and 0 (no) if it falls below.

INSERT INTO assay_data (compound, target_of_assay, label) VALUES
  ('O=c1c2cccnc2ncn1Cc1nn(C[C@H](F)c2ccc(OC(F)F)cc2)c(=O)o1 (racemic)', 'human TRPA1 (Homo sapiens (Human), UniProt O75762)', '1 (yes)'),
  ('Cn1cnc2ncn(Cc3nn([C@H]4C[C@H](c5cccc(Cl)c5)C4)c(=O)o3)c(=O)c21', 'human TRPA1 (Homo sapiens (Human), UniProt O75762)', '1 (yes)'),
  ('Cn1cnc2ncn(Cc3nn(CCc4ccc5ccccc5c4)c(=O)o3)c(=O)c21', 'human TRPA1 (Homo sapiens (Human), UniProt O75762)', '1 (yes)'),
  ('Cc1cnnc2ncn(Cc3nn(CCc4ccc(Cl)cc4)c(=O)o3)c(=O)c12', 'human TRPA1 (Homo sapiens (Human), UniProt O75762)', '1 (yes)'),
  ('Cn1cc(C#N)c2ncn(Cc3nn(CCc4ccc(Cl)cc4)c(=O)o3)c(=O)c21', 'human TRPA1 (Homo sapiens (Human), UniProt O75762)', '0 (no)'),
  ('Cn1cnc2ncn(Cc3nn(CCc4ccccc4)c(=O)o3)c(=O)c21', 'human TRPA1 (Homo sapiens (Human), UniProt O75762)', '0 (no)'),
  ('Cn1cnc2ncn(Cc3nn(C[C@@H](F)c4ccc5ccccc5c4)c(=O)o3)c(=O)c21', 'human TRPA1 (Homo sapiens (Human), UniProt O75762)', '0 (no)');

----------
# Target Of Assay: human TRPA1 (Homo sapiens (Human))
# Assay: hTRPA1 CHO Ca2+ FLIPR assay (block of cinnamaldehyde induced calcium influx)
# Format: cell-based
# Assay Conditions: CHO cells expressing TRPA1; 75 uM cinnamaldehyde; Hill coefficient fixed to 1.5; read-out: hTRPA1 (hTRPA1 CHO Ca2+ MAX EVO (IC50))
# Description: CHO cells expressing TRPA1 were plated into 384-well plates, incubated overnight at 37° C., and loaded with BD calcium indicator dye for 1 hr at 37° C. followed by 15 minutes at room temperature. The assay buffer was Hank's Balanced Salt Solution (HBSS) containing 20 mM HEPES (pH readjusted to 7.4) along with 0.02% BSA. Following dye load and plate cool down, compounds were added to the cells using FLIPR Tetra. […]
Classification by IC50 | ranges: low end = under 20 nM, middle = from 20 nM up to 200 nM, high end = 200 nM and over

INSERT INTO assay_data (compound, label) VALUES
  ('Cn1cnc2ncn(Cc3nn(C[C@@H](F)c4ccc(Br)cc4)c(=O)o3)c(=O)c21', 'high end'),
  ('Cc1cncc2ncn(Cc3nn(CCc4ccc(Cl)cc4)c(=O)o3)c(=O)c12', 'low end'),
  ('Cn1cnc2ncn(Cc3nn(CCc4ccc(C(F)F)cc4)c(=O)o3)c(=O)c21', 'high end'),
  ('Cn1nnc2ncn(Cc3nn([C@H]4C[C@H](c5ccc(Cl)cc5)C4)c(=O)o3)c(=O)c21', 'middle'),
  ('Cn1cnc2ncn(Cc3nn(C[C@H](F)c4ccc(OC(F)(F)F)cc4)c(=O)o3)c(=O)c21 (racemic)', 'low end'),
  ('Cn1cnc2ncn(Cc3nn(CCc4ccc(OC(F)F)cc4)c(=O)o3)c(=O)c21', 'high end'),
  ('O=c1c2cccnc2ncn1Cc1nn([C@@H]2CC[C@@H](c3ccc(F)cc3)C2)c(=O)o1 (racemic)', 'middle'),
  ('Cn1cnc2ncn(Cc3nn(CCCOc4cccc(Cl)c4)c(=O)o3)c(=O)c21', 'middle'),
  ('O=c1c2cccnc2ncn1Cc1nn([C@H]2C[C@](F)(c3ccc(Cl)cc3)C2)c(=O)o1', 'low end'),
  ('Cn1cnc2ncn(Cc3nn(CCc4ccc(C#N)cc4)c(=O)o3)c(=O)c21', 'high end');

----------
# Target Of Assay: human TRPA1 (Homo sapiens (Human))
# Assay: hTRPA1 CHO Ca2+ FLIPR assay (block of cinnamaldehyde induced calcium influx)
# Format: cell-based
# Assay Conditions: CHO cells expressing TRPA1; 75 uM cinnamaldehyde; Hill coefficient fixed to 1.5; read-out: hTRPA1 (hTRPA1 CHO Ca2+ MAX EVO (IC50))
# Procedure: CHO cells expressing TRPA1 were plated into 384-well plates, incubated overnight at 37° C., and loaded with BD calcium indicator dye for 1 hr at 37° C. followed by 15 minutes at room temperature. The assay buffer was Hank's Balanced Salt Solution (HBSS) containing 20 mM HEPES (pH readjusted to 7.4) along with 0.02% BSA. Following dye load and plate cool down, compounds were added to the cells using FLIPR Tetra. […]
pIC50: −log10 of the molar value.
Metric Name: pIC50

INSERT INTO assay_data (molecule, target_of_assay, metric_name, endpoint_result) VALUES
  ('Cn1cnc2ncn(Cc3nn(CCc4ccc(C(F)(F)F)cc4)c(=O)o3)c(=O)c21', 'human TRPA1 (Homo sapiens (Human))', 'pIC50', 6.24),
  ('Cn1cnc2ncn(Cc3nn([C@H]4C[C@H](c5ccc(C#N)cc5)C4)c(=O)o3)c(=O)c21', 'human TRPA1 (Homo sapiens (Human))', 'pIC50', 7.22),
  ('Cn1cnc2ncn(Cc3nn([C@H]4C[C@H](Oc5ccc(Cl)cc5)C4)c(=O)o3)c(=O)c21', 'human TRPA1 (Homo sapiens (Human))', 'pIC50', 6.11),
  ('Cn1cnc2ncn(Cc3nn(CCc4ccc(Br)c(Cl)c4)c(=O)o3)c(=O)c21', 'human TRPA1 (Homo sapiens (Human))', 'pIC50', 6.88),
  ('Cc1ccnc2ncn(Cc3nn(C[C@H](F)c4ccc(OC(F)F)cc4)c(=O)o3)c(=O)c12 (racemic)', 'human TRPA1 (Homo sapiens (Human))', 'pIC50', 7.92),
  ('Cn1cnc2ncn(Cc3nn(CCc4cccc(-c5ccccc5)c4)c(=O)o3)c(=O)c21', 'human TRPA1 (Homo sapiens (Human))', 'pIC50', 6.47),
  ('Cc1ccnc2ncn(Cc3nn([C@H]4C[C@H](c5ccc(Cl)cc5)C4)c(=O)o3)c(=O)c12', 'human TRPA1 (Homo sapiens (Human))', 'pIC50', 8.20),
  ('Cc1cc(C#N)nc2ncn(Cc3nn(CCc4ccc(Cl)cc4)c(=O)o3)c(=O)c12', 'human TRPA1 (Homo sapiens (Human))', 'pIC50', 8.05),
  ('Cn1cnc2ncn(Cc3nn([C@@H]4CC[C@@H](c5cccc(Cl)c5)C4)c(=O)o3)c(=O)c21 (racemic)', 'human TRPA1 (Homo sapiens (Human))', 'pIC50', 7.44),
  ('O=c1c2cccnc2ncn1Cc1nn(C[C@H](F)c2ccc(Cl)cc2)c(=O)o1 (racemic)', 'human TRPA1 (Homo sapiens (Human))', 'pIC50', 7.31),
  ('Cc1nc(C)n2ncn(Cc3nn(CCc4ccc(Cl)cc4)c(=O)o3)c(=O)c12', 'human TRPA1 (Homo sapiens (Human))', 'pIC50', 6.58),
  ('Cc1ccnc2ncn(Cc3nn(CCc4ccc(Cl)cc4)c(=O)o3)c(=O)c12', 'human TRPA1 (Homo sapiens (Human))', 'pIC50', 7.92),
  ('Cn1cnc2ncn(Cc3nn([C@@H]4CC[C@@H](c5cccc(F)c5)C4)c(=O)o3)c(=O)c21 (racemic)', 'human TRPA1 (Homo sapiens (Human))', 'pIC50', 7.12),
  ('Cn1cnc2ncn(Cc3nn([C@H]4C[C@](F)(c5ccc(Cl)cc5)C4)c(=O)o3)c(=O)c21', 'human TRPA1 (Homo sapiens (Human))', 'pIC50', 7.19),
  ('Cn1cnc2ncn(Cc3nn(CCc4ccc5ccc(C#N)cc5c4)c(=O)o3)c(=O)c21', 'human TRPA1 (Homo sapiens (Human))', 'pIC50', 6.92),
  ('Cn1cnc2ncn(Cc3nn(C[C@@H]4CCc5cc(Cl)ccc54)c(=O)o3)c(=O)c21', 'human TRPA1 (Homo sapiens (Human))', 'pIC50', 7.21);
